Measured Target: TYK2 (Homo sapiens, UniProt P29597)
Sequence (P29597 whole entry): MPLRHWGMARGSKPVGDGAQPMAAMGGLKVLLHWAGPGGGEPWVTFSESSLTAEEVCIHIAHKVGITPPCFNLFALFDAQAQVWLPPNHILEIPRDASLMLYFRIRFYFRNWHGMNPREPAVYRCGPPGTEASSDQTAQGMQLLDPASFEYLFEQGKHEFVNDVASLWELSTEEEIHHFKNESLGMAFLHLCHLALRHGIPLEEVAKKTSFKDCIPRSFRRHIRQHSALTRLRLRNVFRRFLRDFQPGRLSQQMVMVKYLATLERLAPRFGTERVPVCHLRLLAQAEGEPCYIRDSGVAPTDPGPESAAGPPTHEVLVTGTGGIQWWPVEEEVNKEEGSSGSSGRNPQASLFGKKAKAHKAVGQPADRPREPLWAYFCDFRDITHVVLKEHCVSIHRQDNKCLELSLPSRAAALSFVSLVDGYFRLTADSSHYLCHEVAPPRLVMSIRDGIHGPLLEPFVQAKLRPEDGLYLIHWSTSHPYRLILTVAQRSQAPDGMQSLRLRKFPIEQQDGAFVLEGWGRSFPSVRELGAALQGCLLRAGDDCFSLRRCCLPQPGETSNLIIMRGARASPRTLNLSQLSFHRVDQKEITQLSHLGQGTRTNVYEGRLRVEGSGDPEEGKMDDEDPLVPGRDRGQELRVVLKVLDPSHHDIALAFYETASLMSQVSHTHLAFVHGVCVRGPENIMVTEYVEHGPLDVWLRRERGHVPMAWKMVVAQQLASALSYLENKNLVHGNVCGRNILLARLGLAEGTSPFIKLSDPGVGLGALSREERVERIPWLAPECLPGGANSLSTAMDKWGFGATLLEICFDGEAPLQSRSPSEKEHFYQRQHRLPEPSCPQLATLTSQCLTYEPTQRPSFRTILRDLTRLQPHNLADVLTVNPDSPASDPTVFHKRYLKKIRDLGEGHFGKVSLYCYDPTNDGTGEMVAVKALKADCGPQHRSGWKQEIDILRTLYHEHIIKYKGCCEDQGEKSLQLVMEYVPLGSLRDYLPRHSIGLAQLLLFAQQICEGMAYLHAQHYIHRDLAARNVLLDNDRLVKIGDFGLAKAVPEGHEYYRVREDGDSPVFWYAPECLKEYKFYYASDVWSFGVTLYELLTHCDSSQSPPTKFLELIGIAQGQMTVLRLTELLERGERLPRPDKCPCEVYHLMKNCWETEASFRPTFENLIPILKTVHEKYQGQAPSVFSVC
Method Summary: TYK2 degradation MSD assay in OCI-LY10 cells
Assay type: cell-based
Parameters: endogenous in cells; host or cells: EBV-B cells
Reported Conditions: 4 to 24 hours incubation, read-out: TYK2 MSD DC50 rating in OCI-LY10
Exercise: state measured DC50 for each of the compounds provided.

DC50 reported for this compound CNc1cc(Nc2cccc(CN3CCC(c4ncc(-c5ccc6c(c5)n(C)c(=O)n6C5CCC(=O)NC5=O)cn4)CC3)c2)nn2c(C(=O)NC3CC3)cnc12 (stereo not drawn) : 1 to 10 nM

DC50 reported for this compound CNc1cc(Nc2cccn(-c3ccc(C(=O)NCCCCc4ccc5c(c4)n(C)c(=O)n5C4CCC(=O)NC4=O)cn3)c2=O)nn2c(C(N)=O)cnc12 (stereo not drawn) : > 100 nM

DC50 reported for this compound CNc1cc(N2CCN(c3ccc(CN4CCN(c5ccc(-c6ccc7c(c6)n(C)c(=O)n7C6CCC(=O)NC6=O)cc5)CC4)cc3)CC2)nn2c(C(=O)N[C@@H]3C[C@@H]3F)cnc12 (stereo partly drawn) : > 100 nM

---

Measured Target: TYK2 (Homo sapiens, UniProt P29597)
Method Summary: TYK2 degradation MSD assay in EBV-B cells
Type: cell-based
Design: endogenous in cells; host or cells: EBV-B cells
Reported Conditions: 4 to 24 hours incubation, read-out: TYK2 MSD DC50 rating in EBV-B
Endpoint: DC50

The measured DC50 that Cn1c(=O)n(C2CCC(=O)NC2=O)c2cccc(CCOCCOCCNc3cc(Nc4cccn(-c5ccccn5)c4=O)nn4c(C(=O)N[C@@H]5C[C@@H]5F)cnc34)c21 (some centres unmarked) showed for TYK2 (Homo sapiens, UniProt P29597) is > 0.1 µM

The measured DC50 that CNc1cc(Nc2cccc(CN3CC(N4CCN(c5ccc6c(c5)n(C)c(=O)n6C5CCC(=O)NC5=O)CC4)C3)c2)nn2c(C(=O)NC3CC3)cnc12 (centres unmarked) showed for TYK2 (Homo sapiens, UniProt P29597) is > 0.1 µM

The measured DC50 that CNC(=O)c1cnc(Nc2ccc(CN3CCN(CC#Cc4ccc5c(c4)n(C)c(=O)n5C4CCC(=O)NC4=O)CC3)cn2)cc1Nc1cccc(-c2ncc(F)cn2)c1OC (centres unmarked) showed for TYK2 (Homo sapiens, UniProt P29597) is > 0.1 µM

The measured DC50 that CNc1cc(-c2ccc(C(=O)NCCCCCCCCc3cccc4c3n(C)c(=O)n4C3CCC(=O)NC3=O)cc2)nn2c(C(=O)N[C@@H]3C[C@@H]3F)cnc12 (some centres unmarked) showed for TYK2 (Homo sapiens, UniProt P29597) is > 0.1 µM

The measured DC50 that CNc1cc(Nc2cccn(-c3ccc(C(=O)N4CC(N5CCN(CCc6ccc7c(c6)n(C)c(=O)n7C6CCC(=O)NC6=O)CC5)C4)cn3)c2=O)nn2c(C(=O)N[C@@H]3C[C@@H]3F)cnc12 (some centres unmarked) showed for TYK2 (Homo sapiens, UniProt P29597) is 0.001 to 0.01 µM

The measured DC50 that CNc1cc(Nc2cccnc2OCC2CCN(C3CCN(c4ccc5c(c4)n(C)c(=O)n5C4CCC(=O)NC4=O)CC3)CC2)nn2c(C(=O)NC3CC3F)cnc12 (centres unmarked) showed for TYK2 (Homo sapiens, UniProt P29597) is > 0.1 µM

The measured DC50 that CNc1cc(N2CCc3c(-c4ccc(CN5CC6(C5)CN(c5ccc(-c7ccc8c(c7)n(C)c(=O)n8C7CCC(=O)NC7=O)cc5)C6)cn4)cccc32)nn2c(C(=O)N[C@@H]3C[C@@H]3F)cnc12 (some centres unmarked) showed for TYK2 (Homo sapiens, UniProt P29597) is > 0.1 µM

The measured DC50 that CNc1cc(Nc2cccn(-c3ccc(C(=O)N4CC5(CCN(c6ccc(-c7ccc8c(c7)n(C)c(=O)n8C7CCC(=O)NC7=O)cn6)CC5)C4)cn3)c2=O)nn2c(C(=O)N[C@@H]3C[C@@H]3F)cnc12 (some centres unmarked) showed for TYK2 (Homo sapiens, UniProt P29597) is < 0.001 µM

The measured DC50 that Cn1c(=O)n(C2CCC(=O)NC2=O)c2ccc(C3CN(C4CCN(Cc5ccc(-c6cccc(Nc7ccc8ncc(C(=O)NC9CC9)n8n7)c6)nc5)CC4)C3)cc21 (centres unmarked) showed for TYK2 (Homo sapiens, UniProt P29597) is > 0.1 µM

The measured DC50 that CNc1cc(Nc2cccc(-c3ccc(CN4CCN(c5ccc(-c6ccc7c(c6)n(C)c(=O)n7C6CCC(=O)NC6=O)cc5)CC4)cn3)c2C(F)F)nn2c(C(=O)N[C@@H]3C[C@@H]3F)cnc12 (some centres unmarked) showed for TYK2 (Homo sapiens, UniProt P29597) is > 0.1 µM

The measured DC50 that CNc1cc(Nc2cccc(-c3ccc(CN4CC5(C4)CN(c4ccc(-c6ccc7c(c6)n(C)c(=O)n7C6CCC(=O)NC6=O)cc4)C5)cn3)c2)nn2c(C(=O)N[C@@H]3C[C@@H]3F)cnc12 (some centres unmarked) showed for TYK2 (Homo sapiens, UniProt P29597) is > 0.1 µM

The measured DC50 that `CNc1cc(Nc2cccn(-c3ccc(C(=O)NCCCCc4cncc(N5CCC[C@H](C(=O)Nc6ccc(=O)n(CC(=O)O)c6)C5)c4)cn3)c2=O)nn2c(C(=O)N[C@@H]3C[C@@H]3F)cnc12` showed for TYK2 (Homo sapiens, UniProt P29597) is > 0.1 µM

The measured DC50 that CNc1cc(Nc2cccn(-c3ccc(C(=O)N(C)CCCOCCCc4cccc5c4n(C)c(=O)n5C4CCC(=O)NC4=O)cn3)c2=O)nn2c(C(=O)N[C@@H]3C[C@@H]3F)cnc12 (some centres unmarked) showed for TYK2 (Homo sapiens, UniProt P29597) is > 0.1 µM

The measured DC50 that CNc1cc(Nc2cccn(-c3ccc(C(=O)N4CCC(N5CCC(N6CCN(c7cccc8c7n(C)c(=O)n8C7CCC(=O)NC7=O)CC6)CC5)CC4)cn3)c2=O)nn2c(C(=O)N[C@@H]3C[C@@H]3F)cnc12 (some centres unmarked) showed for TYK2 (Homo sapiens, UniProt P29597) is > 0.1 µM

The measured DC50 that CNc1cc(Nc2cccn(-c3ccc(CN4CCN([C@H]5CC[C@H](c6ccc(-c7ccc8c(c7)n(C)c(=O)n8C7CCC(=O)NC7=O)cc6)CC5)CC4)cn3)c2=O)nn2c(C(=O)N[C@@H]3C[C@@H]3F)cnc12 (some centres unmarked) showed for TYK2 (Homo sapiens, UniProt P29597) is < 0.001 µM

The measured DC50 that CNC(=O)c1cnc(Nc2cc(C(=O)NCCCCc3ccc4c(c3)n(C)c(=O)n4C3CCC(=O)NC3=O)ccn2)cc1Nc1cccc(-c2ncc(F)cn2)c1OC (centres unmarked) showed for TYK2 (Homo sapiens, UniProt P29597) is > 0.1 µM

The measured DC50 that CNC(=O)c1cnc(Nc2ccc(C(=O)NCCCCc3cccc4c3n(C)c(=O)n4C3CCC(=O)NC3=O)cn2)cc1Nc1cccn(C)c1=O (centres unmarked) showed for TYK2 (Homo sapiens, UniProt P29597) is > 0.1 µM

The measured DC50 that CNc1cc(Nc2cccn(-c3cc(C(=O)NCCCCCCCCCCc4ccc5c(c4)n(C)c(=O)n5C4CCC(=O)NC4=O)ccn3)c2=O)nn2c(C(=O)N[C@@H]3C[C@@H]3F)cnc12 (some centres unmarked) showed for TYK2 (Homo sapiens, UniProt P29597) is 0.001 to 0.01 µM

The measured DC50 that CNc1cc(N2CCc3c(N4CCC(CN5CCN(c6ccc7c(c6)n(C)c(=O)n7C6CCC(=O)NC6=O)CC5)CC4)cccc32)nn2c(C(=O)N[C@@H]3C[C@@H]3F)cnc12 (some centres unmarked) showed for TYK2 (Homo sapiens, UniProt P29597) is > 0.1 µM

The measured DC50 that Cn1c(=O)n(C2CCC(=O)NC2=O)c2ccc(-c3ccc(N4CCN(Cc5ccc(-c6cccc(Oc7ccc8ncc(C(=O)NC9CC9)n8n7)c6)nc5)CC4)cc3)cc21 (centres unmarked) showed for TYK2 (Homo sapiens, UniProt P29597) is > 0.1 µM
